tested on: SW 1271 complex spheroids, viability; test: Anticancer human tumor SW 1271 cell line growth inhibition [LSD1]; conditions: second compound 1 µM; first compound 0.0949 µM; stronger effect = lower value;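 note: spheroids exposed to agents for 7 days before luminescence read; 100% = DMSO vehicle control viability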
For each entry below, report its viability, T/C value.
Give bare numbers, in %.

Hey, quick one: what's viability, T/C for each of these?
1. NS(=O)(=O)OCC1CC(n2ccc3c(NC4CCc5ccccc54)ncnc32)CC1O (centres undefined) + NC1CCC(NC2CC2c2ccccc2)CC1
2. Nc1ccccc1NC(=O)c1ccc(CNC(=O)OCc2cccnc2)cc1 + NC1CC1c1ccc(-c2cccc(O)c2)cc1
3. CCN(c1cc(-c2ccc(CN3CCOCC3)cc2)cc(C(=O)NCc2c(C)cc(C)[nH]c2=O)c1C)C1CCOCC1 + NC1CCC(NC2CC2c2ccccc2)CC1

Response line:
82.4
46.6
107

Prompt line: What value of viability, T/C has been recorded for this entry: Nc1ccn(C2OC(CO)C(O)C2(F)F)c(=O)n1 (centres undefined) + NC1CC1c1ccc(-c2cccc(O)c2)cc1
Response line: 58.5
